# test: Stability of six compounds in rat plasma (QC samples)
# Format: in vitro ADME
# measurement.conditions: At 4°C for 24 h, postpreparative QC sample in autosampler, low concentration level, n = 6

smiles.string	Stability, Average
O=C(/C=C/c1ccc(O[C@@H]2O[C@H](CO)[C@@H](O)[C@H](O)[C@H]2O)cc1)c1ccc(O)cc1O	90.2%
O=C(/C=C/c1ccc(O)cc1)c1ccc(O)cc1O	95.7%
CC1(C)[C@@H](O)CC[C@]2(C)[C@H]3C(=O)C=C4[C@@H]5C[C@@](C)(C(=O)O)CC[C@]5(C)CC[C@@]4(C)[C@]3(C)CC[C@@H]12	96.4%
O=C1C[C@@H](c2ccc(O[C@@H]3O[C@H](CO)[C@@H](O)[C@H](O)[C@H]3O)cc2)Oc2cc(O)ccc21	90.9%
O=C1C[C@@H](c2ccc(O)cc2)Oc2cc(O)ccc21	90.8%

====

# test: Pharmacokinetic study in rats after oral administration of raw/honey-roasting licorice water decoction (UPLC-MS/MS of plasma)
# Assay type: in vivo, Wistar rats
# measurement.conditions: male, Wistar, rat, in vivo, po, 2.7 g (crude drug)/kg, rat plasma, oral 50% honey-roasting licorice water decoction, 2.7 g (crude drug)/kg, n = 5; read-out: AUC0-24h

smiles.string	AUC(0-t) / ng·h/mL
O=C1C[C@@H](c2ccc(O[C@@H]3O[C@H](CO)[C@@H](O)[C@H](O)[C@H]3O)cc2)Oc2cc(O)ccc21	319
O=C(/C=C/c1ccc(O[C@@H]2O[C@H](CO)[C@@H](O)[C@H](O)[C@H]2O)cc1)c1ccc(O)cc1O	246

====

# test: Pharmacokinetic study in rats after oral administration of raw/honey-roasting licorice water decoction (UPLC-MS/MS of plasma)
# Format: in vivo, Wistar rats
# measurement.conditions: male, Wistar, rat, in vivo, po, 2.7 g (crude drug)/kg, rat plasma, oral raw licorice water decoction, 2.7 g (crude drug)/kg, n = 5; read-out: AUC0-24h
property.measured: AUC(0-t) (ng·h/mL)

smiles.string	property.measured	value.observed
O=C(/C=C/c1ccc(O[C@@H]2O[C@H](CO)[C@@H](O)[C@H](O)[C@H]2O)cc1)c1ccc(O)cc1O	AUC(0-t)	257

====

# test: Pharmacokinetic study in rats after oral administration of raw/honey-roasting licorice water decoction (UPLC-MS/MS of plasma)
# Format: in vivo, Wistar rats
# measurement.conditions: male, Wistar, rat, in vivo, po, 2.7 g (crude drug)/kg, rat plasma, oral raw licorice water decoction, 2.7 g (crude drug)/kg, n = 5; read-out: Cmax
# Protocol: Healthy male Wistar rats (weighing 200 ± 20 g) were obtained from the Laboratory Animal Centre of Shanghai Jiao Tong University (Shanghai, China). […] All protocols and procedures were approved by the Shanghai Jiao Tong University Animal Care and Use Committee. […] The pharmacokinetic parameters of the six compounds were calculated by […] […] Statistical analyses of all the data obtained were evaluated using one-way ANOVA (SPSS 17.0).
property.measured: Cmax (ng/mL)

molecule	property.measured	value.observed
O=C(/C=C/c1ccc(O[C@@H]2O[C@H](CO)[C@@H](O)[C@H](O)[C@H]2O)cc1)c1ccc(O)cc1O [ILQ, isoliquiritin]	Cmax	47.8

====

The compounds listed here are annotated with their Stability, Average.
# test: Stability of six compounds in rat plasma (QC samples)
# Format: in vitro ADME
# measurement.conditions: At -80°C for 1 month, rat plasma QC sample, high concentration level, n = 6

smiles.string	Stability, Average
O=C1C[C@@H](c2ccc(O[C@@H]3O[C@H](CO)[C@@H](O)[C@H](O)[C@H]3O)cc2)Oc2cc(O)ccc21	89.5%
O=C(/C=C/c1ccc(O)cc1)c1ccc(O)cc1O	87.6%
O=C(/C=C/c1ccc(O[C@@H]2O[C@H](CO)[C@@H](O)[C@H](O)[C@H]2O)cc1)c1ccc(O)cc1O	100.1%
O=C1C[C@@H](c2ccc(O)cc2)Oc2cc(O)ccc21	96.5%

====

# test: Pharmacokinetic study in rats after oral administration of raw/honey-roasting licorice water decoction (UPLC-MS/MS of plasma)
# Format: in vivo, Wistar rats
# measurement.conditions: male, Wistar, rat, plasma, po, 2.7 g (crude drug)/kg, rat plasma, oral 25% honey-roasting licorice water decoction, 2.7 g (crude drug)/kg, n = 5; read-out: Cmax
# Procedure: Healthy male Wistar rats (weighing 200 ± 20 g) were obtained from the Laboratory Animal Centre of Shanghai Jiao Tong University (Shanghai, China). […] All protocols and procedures were approved by the Shanghai Jiao Tong University Animal Care and Use Committee. […] The pharmacokinetic parameters of the six compounds were calculated by […] […] Statistical analyses of all the data obtained were evaluated using one-way ANOVA (SPSS 17.0).
Below, each entry is listed alongside its reported Cmax.

molecule	Cmax
CC1(C)[C@@H](O)CC[C@]2(C)[C@H]3C(=O)C=C4[C@@H]5C[C@@](C)(C(=O)O)CC[C@]5(C)CC[C@@]4(C)[C@]3(C)CC[C@@H]12 [GA, glycyrrhetinic acid]	651 ng/mL
O=C1C[C@@H](c2ccc(O[C@@H]3O[C@H](CO)[C@@H](O)[C@H](O)[C@H]3O)cc2)Oc2cc(O)ccc21 [LQ, liquiritin]	203 ng/mL
O=C(/C=C/c1ccc(O)cc1)c1ccc(O)cc1O [ILG, isoliquiritigenin]	1.12 ng/mL

====

# test: Pharmacokinetic study in rats after oral administration of raw/honey-roasting licorice water decoction (UPLC-MS/MS of plasma)
# Type: in vivo, Wistar rats
# measurement.conditions: male, Wistar, in vivo; rat plasma, oral 25% honey-roasting licorice water decoction, 2.7 g (crude drug)/kg, n = 5; read-out: Tmax

molecule	Tmax, min
O=C(/C=C/c1ccc(O[C@@H]2O[C@H](CO)[C@@H](O)[C@H](O)[C@H]2O)cc1)c1ccc(O)cc1O [ILQ, isoliquiritin]	42

====

# test: Pharmacokinetic study in rats after oral administration of raw/honey-roasting licorice water decoction (UPLC-MS/MS of plasma)
# Type: in vivo, Wistar rats
# measurement.conditions: male, Wistar, rat, plasma, po, 2.7 g (crude drug)/kg, rat plasma, oral raw licorice water decoction, 2.7 g (crude drug)/kg, n = 5; read-out: Cmax

compound	Cmax (µg/mL)
O=C(/C=C/c1ccc(O)cc1)c1ccc(O)cc1O [ILG, isoliquiritigenin]	0.00075
CC1(C)[C@@H](O)CC[C@]2(C)[C@H]3C(=O)C=C4[C@@H]5C[C@@](C)(C(=O)O)CC[C@]5(C)CC[C@@]4(C)[C@]3(C)CC[C@@H]12 [GA, glycyrrhetinic acid]	0.572

====

# test: Stability of six compounds in rat plasma (QC samples)
# Assay type: in vitro ADME
# measurement.conditions: At 4°C for 24 h, postpreparative QC sample in autosampler, medium concentration level, n = 6

smiles.string	display.unit	Stability, Average
CC1(C)[C@@H](O)CC[C@]2(C)[C@H]3C(=O)C=C4[C@@H]5C[C@@](C)(C(=O)O)CC[C@]5(C)CC[C@@]4(C)[C@]3(C)CC[C@@H]12	%	96.2
O=C(/C=C/c1ccc(O)cc1)c1ccc(O)cc1O	%	96.4
O=C1C[C@@H](c2ccc(O)cc2)Oc2cc(O)ccc21	%	87.7
O=C1C[C@@H](c2ccc(O[C@@H]3O[C@H](CO)[C@@H](O)[C@H](O)[C@H]3O)cc2)Oc2cc(O)ccc21	%	88.3
O=C(/C=C/c1ccc(O[C@@H]2O[C@H](CO)[C@@H](O)[C@H](O)[C@H]2O)cc1)c1ccc(O)cc1O	%	89.3

====

# test: Pharmacokinetic study in rats after oral administration of raw/honey-roasting licorice water decoction (UPLC-MS/MS of plasma)
# Format: in vivo, Wistar rats
# measurement.conditions: male, Wistar, rat, in vivo, po, 2.7 g (crude drug)/kg, rat plasma, oral 25% honey-roasting licorice water decoction, 2.7 g (crude drug)/kg, n = 5; read-out: AUC0-24h
property.measured: AUC(0-t)

smiles.string	value.observed
O=C(/C=C/c1ccc(O[C@@H]2O[C@H](CO)[C@@H](O)[C@H](O)[C@H]2O)cc1)c1ccc(O)cc1O	260 ng·h/mL

====

# test: Pharmacokinetic study in rats after oral administration of raw/honey-roasting licorice water decoction (UPLC-MS/MS of plasma)
# Format: in vivo, Wistar rats
# measurement.conditions: male, Wistar, rat, in vivo, po, 2.7 g (crude drug)/kg, rat plasma, oral 50% honey-roasting licorice water decoction, 2.7 g (crude drug)/kg, n = 5; read-out: Cmax

molecule	Cmax / ng/mL
O=C(/C=C/c1ccc(O[C@@H]2O[C@H](CO)[C@@H](O)[C@H](O)[C@H]2O)cc1)c1ccc(O)cc1O [ILQ, isoliquiritin]	20.6

====

# test: Stability of six compounds in rat plasma (QC samples)
# Assay type: in vitro ADME
# measurement.conditions: At 4°C for 24 h, postpreparative QC sample in autosampler, high concentration level, n = 6
Documented Stability, Average across a set of molecules

smiles.string	Stability, Average
O=C1C[C@@H](c2ccc(O[C@@H]3O[C@H](CO)[C@@H](O)[C@H](O)[C@H]3O)cc2)Oc2cc(O)ccc21	99.5%
CC1(C)[C@@H](O)CC[C@]2(C)[C@H]3C(=O)C=C4[C@@H]5C[C@@](C)(C(=O)O)CC[C@]5(C)CC[C@@]4(C)[C@]3(C)CC[C@@H]12	100.9%
O=C(/C=C/c1ccc(O)cc1)c1ccc(O)cc1O	93.1%
O=C1C[C@@H](c2ccc(O)cc2)Oc2cc(O)ccc21	93.9%
O=C(/C=C/c1ccc(O[C@@H]2O[C@H](CO)[C@@H](O)[C@H](O)[C@H]2O)cc1)c1ccc(O)cc1O	95.7%

Values were extracted from paper PMC6033295.
